Molecular target: rat nNOS (Rattus norvegicus)
Sequence (P29476 whole entry): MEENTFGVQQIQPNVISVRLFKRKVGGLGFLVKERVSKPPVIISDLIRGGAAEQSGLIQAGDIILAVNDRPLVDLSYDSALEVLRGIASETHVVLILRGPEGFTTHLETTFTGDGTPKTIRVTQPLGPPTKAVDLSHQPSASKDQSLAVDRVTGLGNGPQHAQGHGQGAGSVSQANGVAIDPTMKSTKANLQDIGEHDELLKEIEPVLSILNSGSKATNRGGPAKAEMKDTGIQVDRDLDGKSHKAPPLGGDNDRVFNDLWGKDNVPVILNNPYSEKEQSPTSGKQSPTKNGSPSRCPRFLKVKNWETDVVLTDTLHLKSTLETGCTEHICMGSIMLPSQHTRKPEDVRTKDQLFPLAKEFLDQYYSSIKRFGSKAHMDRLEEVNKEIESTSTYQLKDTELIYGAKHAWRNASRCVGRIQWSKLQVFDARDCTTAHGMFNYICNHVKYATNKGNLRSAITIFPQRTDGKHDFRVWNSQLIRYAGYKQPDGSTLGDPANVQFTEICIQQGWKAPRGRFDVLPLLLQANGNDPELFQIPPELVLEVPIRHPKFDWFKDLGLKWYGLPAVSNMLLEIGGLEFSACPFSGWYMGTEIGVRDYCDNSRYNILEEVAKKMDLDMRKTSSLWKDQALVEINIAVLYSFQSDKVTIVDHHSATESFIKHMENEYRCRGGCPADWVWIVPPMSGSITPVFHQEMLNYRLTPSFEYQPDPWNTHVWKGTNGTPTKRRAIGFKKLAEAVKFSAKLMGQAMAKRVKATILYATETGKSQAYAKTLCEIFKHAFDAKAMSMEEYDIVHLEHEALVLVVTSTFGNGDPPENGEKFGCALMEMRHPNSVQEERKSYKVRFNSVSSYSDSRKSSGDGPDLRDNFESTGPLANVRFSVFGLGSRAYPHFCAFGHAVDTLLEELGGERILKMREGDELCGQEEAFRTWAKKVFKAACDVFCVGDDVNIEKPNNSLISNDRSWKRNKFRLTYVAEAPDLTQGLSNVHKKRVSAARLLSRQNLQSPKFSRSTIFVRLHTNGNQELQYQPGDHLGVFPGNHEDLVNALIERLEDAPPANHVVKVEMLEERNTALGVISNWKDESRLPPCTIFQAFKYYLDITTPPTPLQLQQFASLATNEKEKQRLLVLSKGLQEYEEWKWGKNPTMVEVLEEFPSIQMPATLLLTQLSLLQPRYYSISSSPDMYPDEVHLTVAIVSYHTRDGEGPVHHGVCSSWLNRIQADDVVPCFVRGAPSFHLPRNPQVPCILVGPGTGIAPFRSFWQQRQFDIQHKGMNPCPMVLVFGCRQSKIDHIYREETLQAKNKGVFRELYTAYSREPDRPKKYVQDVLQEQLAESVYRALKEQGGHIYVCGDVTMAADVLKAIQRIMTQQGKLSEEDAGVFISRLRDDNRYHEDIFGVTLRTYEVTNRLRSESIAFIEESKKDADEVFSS
quantity-name: Ki (nM)

Worked cases, Ki given:
INSERT INTO measurements (compound, quantity_name, recorded_result) VALUES
  ('Cc1cc(N)nc(C[C@@H]2CNC[C@@H]2OCCN[C@H]2C[C@@H]2c2cccc(F)c2)c1', 'Ki', 175),
  ('Cc1cc(N)nc(C[C@@H]2CNC[C@@H]2OCCNC(C)Cc2cccc(F)c2)c1.Cl (mixture of isomers) [(±) 2e]', 'Ki', 46);

A = Cc1cc(N)nc(C[C@@H]2CNC[C@@H]2OCCNC2CC2c2cccc(Cl)c2)c1 (mixture of isomers) [(±) 2d]
B = Cc1cccc(C2CC2NCCO[C@H]2CNC[C@H]2Cc2cc(C)cc(N)n2)c1 (mixture of isomers) [(±) 2c]
Prompt: Between A and B , whose measured Ki reads higher? Answer format: the label of the selected item.
Completion: B
(B: 140 nM, A: 71 nM)

meta.source: paper PMC3574199
